The reported numbers originate from the Immune Epitope Database (IEDB).

- SYSTEM: HLA-A*11:01
- ASSAY_COMMENT: IEDB peptide-MHC binding, purified MHC/competitive/fluorescence; filed as Kd, often an IC50 or EC50 that approximates it; bounds were set here for any values at or beyond the usual limits of such assays
- CONDITION_SUMMARY: source organism: Yersinia pestis Nepal516
REPORTED_ENDPOINT: Kd (nM)

| CONSTRUCT_SEQUENCE | SYSTEM | REPORTED_ENDPOINT | UNIT_OF_MEASUREMENT | NUMBER |
| --- | --- | --- | --- | --- |
| TVFSLLLFY | HLA-A*11:01 | Kd | nM | 500 |

---

# pKd per entry
- SYSTEM: HLA-A*11:01
- ASSAY_COMMENT: IEDB peptide-MHC binding, purified MHC/competitive/radioactivity; filed as Kd, often an IC50 or EC50 that approximates it; bounds were set here for any values at or beyond the usual limits of such assays
- CONDITION_SUMMARY: source organism: Dengue virus 1 Brazil/97-11/1997
pKd: −log10 of the molar value.

| CONSTRUCT_SEQUENCE | SYSTEM | pKd |
| --- | --- | --- |
| VMAFIAFLR | HLA-A*11:01 | 6.77 |
| TTLSLDYAWK | HLA-A*11:01 | 7.10 |

---

- SYSTEM: HLA-A*03:01
- ASSAY_COMMENT: IEDB peptide-MHC binding, purified MHC/direct/fluorescence; filed as Kd, often an IC50 or EC50 that approximates it; bounds were set here for any values at or beyond the usual limits of such assays
- CONDITION_SUMMARY: source organism: Escherichia coli O157:H7 str. EC869

| CONSTRUCT_SEQUENCE | Kd |
| --- | --- |
| SQFNHWFGE | ≥ 20 µM |

---

- SYSTEM: HLA-B*48:01
- ASSAY_COMMENT: IEDB peptide-MHC binding, purified MHC/direct/fluorescence; filed as Kd, often an IC50 or EC50 that approximates it; bounds were set here for any values at or beyond the usual limits of such assays
- CONDITION_SUMMARY: source organism: Camelpox virus CMS
REPORTED_ENDPOINT: Kd (nM)

| CONSTRUCT_SEQUENCE | NUMBER |
| --- | --- |
| WQFAIHYSF | 160 |

---

# pKd listing for each entry below
- SYSTEM: HLA-A*03:01
- ASSAY_COMMENT: IEDB peptide-MHC binding, purified MHC/direct/fluorescence; filed as Kd, often an IC50 or EC50 that approximates it; bounds were set here for any values at or beyond the usual limits of such assays
- CONDITION_SUMMARY: source organism: Cryptosporidium parvum
pKd: −log10 of the molar value.
REPORTED_ENDPOINT: pKd

| CONSTRUCT_SEQUENCE | SYSTEM | REPORTED_ENDPOINT | RESULT |
| --- | --- | --- | --- |
| ISCQIYNAL | HLA-A*03:01 | pKd | ≤ 4.70 |
| VPPTNSINK | HLA-A*03:01 | pKd | ≤ 4.70 |

---

- SYSTEM: HLA-A*03:01
- ASSAY_COMMENT: IEDB peptide-MHC binding, purified MHC/competitive/radioactivity; filed as Kd, often an IC50 or EC50 that approximates it; bounds were set here for any values at or beyond the usual limits of such assays
- CONDITION_SUMMARY: source organism: Dengue virus 4 Philippines/H241/1956

| CONSTRUCT_SEQUENCE | Kd / nM |
| --- | --- |
| HVQTKPGLFK | 8.44 |
| MGYWIESSK | 83.9 |
| VSLLGSALLK | 24.9 |
| KMVEPWLSSK | 11.5 |

---

- SYSTEM: HLA-C*08:02
- ASSAY_COMMENT: IEDB peptide-MHC binding, purified MHC/direct/fluorescence; filed as Kd, often an IC50 or EC50 that approximates it; bounds were set here for any values at or beyond the usual limits of such assays
- CONDITION_SUMMARY: source organism: Rickettsia rickettsii str. 'Sheila Smith'

| CONSTRUCT_SEQUENCE | Kd |
| --- | --- |
| FMPESSYLL | ≥ 20 µM |

---

- SYSTEM: HLA-B*07:02
- ASSAY_COMMENT: IEDB peptide-MHC binding, purified MHC/direct/fluorescence; filed as Kd, often an IC50 or EC50 that approximates it; bounds were set here for any values at or beyond the usual limits of such assays
- CONDITION_SUMMARY: source organism: Cryptosporidium parvum
pKd: −log10 of the molar value.
REPORTED_ENDPOINT: pKd

| CONSTRUCT_SEQUENCE | REPORTED_ENDPOINT | RESULT |
| --- | --- | --- |
| ISCQIYNAL | pKd | ≤ 4.70 |

---

- SYSTEM: HLA-B*57:01
- ASSAY_COMMENT: IEDB peptide-MHC binding, purified MHC/direct/fluorescence; filed as Kd, often an IC50 or EC50 that approximates it; bounds were set here for any values at or beyond the usual limits of such assays
- CONDITION_SUMMARY: source organism: Cryptosporidium parvum

| CONSTRUCT_SEQUENCE | Kd |
| --- | --- |
| ISCQIYNAL | ≥ 20 µM |

---

- SYSTEM: HLA-C*08:02
- ASSAY_COMMENT: IEDB peptide-MHC binding, purified MHC/direct/fluorescence; filed as Kd, often an IC50 or EC50 that approximates it; bounds were set here for any values at or beyond the usual limits of such assays
- CONDITION_SUMMARY: source organism: Variola virus
pKd: −log10 of the molar value.
REPORTED_ENDPOINT: pKd

| CONSTRUCT_SEQUENCE | NUMBER |
| --- | --- |
| FTDISMSLY | 7.72 |

---

- SYSTEM: HLA-A*68:02
- ASSAY_COMMENT: IEDB peptide-MHC binding, purified MHC/direct/fluorescence; filed as Kd, often an IC50 or EC50 that approximates it; bounds were set here for any values at or beyond the usual limits of such assays
- CONDITION_SUMMARY: source organism: Reston ebolavirus

| CONSTRUCT_SEQUENCE | Kd |
| --- | --- |
| KHDFIDNPL | ≥ 20 µM |

---

- SYSTEM: HLA-A*24:03
- ASSAY_COMMENT: IEDB peptide-MHC binding, purified MHC/competitive/fluorescence; filed as Kd, often an IC50 or EC50 that approximates it; bounds were set here for any values at or beyond the usual limits of such assays
- CONDITION_SUMMARY: source organism: Streptococcus pneumoniae TIGR4
REPORTED_ENDPOINT: Kd

| CONSTRUCT_SEQUENCE | SYSTEM | RESULT |
| --- | --- | --- |
| YQVEGATRV | HLA-A*24:03 | ≥ 20 µM |

---

- SYSTEM: HLA-B*57:01
- ASSAY_COMMENT: IEDB peptide-MHC binding, purified MHC/direct/fluorescence; filed as Kd, often an IC50 or EC50 that approximates it; bounds were set here for any values at or beyond the usual limits of such assays
- CONDITION_SUMMARY: source organism: Listeria monocytogenes serotype 4b str. H7858
pKd: −log10 of the molar value.
REPORTED_ENDPOINT: pKd

| CONSTRUCT_SEQUENCE | REPORTED_ENDPOINT | RESULT |
| --- | --- | --- |
| AALEGLSGF | pKd | ≤ 4.70 |

---

- SYSTEM: HLA-B*15:09
- ASSAY_COMMENT: IEDB peptide-MHC binding, purified MHC/competitive/fluorescence; filed as Kd, often an IC50 or EC50 that approximates it; bounds were set here for any values at or beyond the usual limits of such assays
- CONDITION_SUMMARY: source organism: Vaccinia virus Tian Tan
pKd: −log10 of the molar value.

| CONSTRUCT_SEQUENCE | SYSTEM | pKd |
| --- | --- | --- |
| WQFAIHYSF | HLA-B*15:09 | ≤ 4.70 |

---

- SYSTEM: HLA-B*48:01
- ASSAY_COMMENT: IEDB peptide-MHC binding, purified MHC/competitive/fluorescence; filed as Kd, often an IC50 or EC50 that approximates it; bounds were set here for any values at or beyond the usual limits of such assays
- CONDITION_SUMMARY: source organism: Orthomarburgvirus marburgense

| CONSTRUCT_SEQUENCE | Kd |
| --- | --- |
| THYSGNIVH | ≥ 20 µM |

---

- SYSTEM: HLA-B*15:09
- ASSAY_COMMENT: IEDB peptide-MHC binding, purified MHC/direct/fluorescence; filed as Kd, often an IC50 or EC50 that approximates it; bounds were set here for any values at or beyond the usual limits of such assays
- CONDITION_SUMMARY: source organism: Escherichia coli O157:H7 str. EC869

| CONSTRUCT_SEQUENCE | Kd |
| --- | --- |
| YQAFRTKVH | ≥ 20 µM |
